# normalised response annotations
test system: CAL-148; test: normalised response (% of control), CellTiter-Glo; higher = more viable cells (100 = DMSO, 0 = benzethonium chloride kill control); settings: incubation time: 72 h

COMPOUND: Cc1ccc(-n2nc(C(C)(C)C)cc2NC(=O)Nc2ccc(OCCN3CCOCC3)c3ccccc23)cc1 [Doramapimod] (1 nM)
normalised response / %: 88.6
//
COMPOUND: COc1cc([C@@H]2c3cc4c(cc3[C@@H](O[C@@H]3O[C@@H]5CO[C@@H](C)O[C@H]5[C@H](O)[C@H]3O)[C@H]3COC(=O)[C@H]23)OCO4)cc(OC)c1O [Etoposide] (1 nM)
normalised response / %: 104
//
COMPOUND: Cc1ccc(C(=O)Nc2ccc(CN3CCN(C)CC3)c(C(F)(F)F)c2)cc1C#Cc1cnc2cccnn12 [Ponatinib] (100 nM)
normalised response / %: 99.6
//
COMPOUND: Cn1c(CCCC(=O)O)nc2cc(N(CCCl)CCCl)ccc21 [Bendamustine] (10 nM)
normalised response / %: 110
//
COMPOUND: Cn1c(CCCC(=O)O)nc2cc(N(CCCl)CCCl)ccc21 [Bendamustine] (1 nM)
normalised response / %: 116
//
COMPOUND: CCCCCCCCCCCCCCCCCCOP(=O)([O-])OC1CC[N+](C)(C)CC1 [Perifosine] (2.5 nM)
normalised response / %: 95.9
//
COMPOUND: COc1cc2ncnc(Nc3ccc(F)c(Cl)c3)c2cc1NC(=O)/C=C/CN1CCCCC1 [Dacomitinib] (100 nM)
normalised response / %: 82

Source: the supplement of paper PMC4862054
